Value source: patent US10618916B2

- tested on: PD-1/PD-L1 protein/protein interaction (recombinant human PD-L1 and human PD-1) (Homo sapiens (Human))
- Sequence (Q9NZQ7 19-238): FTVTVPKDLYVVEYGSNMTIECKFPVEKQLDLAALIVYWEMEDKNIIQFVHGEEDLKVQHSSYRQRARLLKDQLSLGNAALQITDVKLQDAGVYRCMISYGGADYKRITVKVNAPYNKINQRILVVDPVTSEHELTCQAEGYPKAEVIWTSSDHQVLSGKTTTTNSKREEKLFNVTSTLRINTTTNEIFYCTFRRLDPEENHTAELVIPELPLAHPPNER
- test description: Homogeneous Time-Resolved Fluorescence (HTRF) PD-1/PD-L1 binding assay
pIC50: −log10 of the molar value.
property measured: pIC50

smiles representation | endpoint value
Cc1c(NC(=O)c2nc3c(n2C)CCN(CCC24CCC(C(=O)O)(CC2)C4)C3)cccc1-c1cccc(NC(=O)c2nc3c(n2C)CCN(C2CCOCC2)C3)c1C | ≥ 8.30
C[C@H](O)CN1CCc2c(nc(C(=O)Nc3cccc(-c4cccc(NC(=O)c5nc6c(n5C)CCN(CCC57CCC(C(=O)O)(CC5)C7)C6)c4Cl)c3Cl)n2C)C1 | ≥ 8.30

Now, please, on to the next compound.
Incoming: Can you look up the measured pIC50 of Cc1c(NC(=O)c2nc3c(n2C)CCN(CCC24CCC(C(=O)O)(CC2)C4)C3)cccc1-c1cccc(NC(=O)c2nc3c(n2C)CCN(CCc2ccc(C(=O)O)cc2)C3)c1Cl for me?
Outgoing: 8.00 to 8.30
